Below, each entry is listed with its recorded IC50.
Tgt: heparanase (Homo sapiens)
Sequence (Q9Y251 158-543 limits assumed): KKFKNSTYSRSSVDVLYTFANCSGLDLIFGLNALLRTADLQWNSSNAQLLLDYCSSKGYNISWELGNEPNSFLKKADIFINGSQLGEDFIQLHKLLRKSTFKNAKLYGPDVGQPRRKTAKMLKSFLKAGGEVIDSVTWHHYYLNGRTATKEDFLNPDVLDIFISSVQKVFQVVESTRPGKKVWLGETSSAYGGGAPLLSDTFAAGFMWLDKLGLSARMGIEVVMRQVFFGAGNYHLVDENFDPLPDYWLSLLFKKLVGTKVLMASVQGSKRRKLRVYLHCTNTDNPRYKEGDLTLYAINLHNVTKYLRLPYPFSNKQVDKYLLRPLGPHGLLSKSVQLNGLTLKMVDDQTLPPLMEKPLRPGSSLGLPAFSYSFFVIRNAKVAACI
Sequence (Q9Y251 36-109 limits assumed): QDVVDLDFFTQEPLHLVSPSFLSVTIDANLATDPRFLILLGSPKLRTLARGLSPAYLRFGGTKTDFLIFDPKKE
Assay comment: AGA*IA assay: heparanase-catalyzed fondaparinux cleavage, colorimetric (WST-1)
Format: biochemical
Measurement context: Table 1; range activity classes, AGA*IA test on Fondaparinux; read-out: AGAIA assay IC50

{"Molecule": "C[C@H](NC(=O)Cc1cccc(NC(=O)c2cc(NC(=O)c3ccc(Oc4ccc(C(=O)Nc5cc(C(=O)Nc6cccc(CC(=O)N[C@@H](C)C(=O)O)c6)n(C)c5)cc4)cc3)cn2C)c1)C(=O)O [Compound 36d]", "IC50": "1 to 20 µM"}
{"Molecule": "CC(C)CC(NC(=O)Cc1cccc(NC(=O)c2cc(NC(=O)c3cccc(NC(=O)Nc4cccc(C(=O)Nc5cc(C(=O)Nc6cccc(CC(=O)NC(CC(C)C)C(=O)O)c6)n(C)c5)c4)c3)cn2C)c1)C(=O)O (stereo not drawn) [Compound 12a]", "IC50": "1 to 20 µM"}
{"Molecule": "C[C@H](NC(=O)Cc1cccc(NC(=O)c2cc(NC(=O)c3cc(NC(=O)Nc4cc(C(=O)Nc5cc(C(=O)Nc6cccc(CC(=O)N[C@@H](C)C(=O)O)c6)n(C)c5)n(C)c4)cn3C)cn2C)c1)C(=O)O [Compound 17d]", "IC50": "1 to 20 µM"}
{"Molecule": "Cn1cc(NC(=O)Nc2cc(C(=O)Nc3cc(C(=O)Nc4cccc(CC(=O)N[C@@H](Cc5ccccc5)C(=O)O)c4)n(C)c3)n(C)c2)cc1C(=O)Nc1cc(C(=O)Nc2cccc(CC(=O)N[C@@H](Cc3ccccc3)C(=O)O)c2)n(C)c1 [Compound 17e]", "IC50": "0.5 to 0.99 µM"}
{"Molecule": "Cn1cc(NC(=O)c2ccc(Oc3ccc(C(=O)Nc4cc(C(=O)Nc5cccc(CC(=O)NCC(=O)O)c5)n(C)c4)cc3)cc2)cc1C(=O)Nc1cccc(CC(=O)NCC(=O)O)c1 [Compound 36b]", "IC50": "1 to 20 µM"}
{"Molecule": "CC(C)C[C@H](NC(=O)Cc1cccc(NC(=O)c2cc(NC(=O)c3ccc(Oc4ccc(C(=O)Nc5cc(C(=O)Nc6cccc(CC(=O)N[C@@H](CC(C)C)C(=O)O)c6)n(C)c5)cc4)cc3)cn2C)c1)C(=O)O [Compound 36a]", "IC50": "1 to 20 µM"}
{"Molecule": "Cn1cc(NC(=O)c2cccc(NC(=O)Nc3cccc(C(=O)Nc4cc(C(=O)Nc5cccc(CC(=O)N[C@@H](CCC(=O)O)C(=O)O)c5)n(C)c4)c3)c2)cc1C(=O)Nc1cccc(CC(=O)N[C@@H](CCC(=O)O)C(=O)O)c1 [Compound 12f]", "IC50": "1 to 20 µM"}
{"Molecule": "Cn1cc(NC(=O)c2cccc(NC(=O)Nc3cccc(C(=O)Nc4cc(C(=O)Nc5cccc(CC(=O)N[C@@H](Cc6ccccc6)C(=O)O)c5)n(C)c4)c3)c2)cc1C(=O)Nc1cccc(CC(=O)N[C@@H](Cc2ccccc2)C(=O)O)c1 [Compound 12e]", "IC50": "0.05 to 0.49 µM"}
{"Molecule": "CC(C)C[C@H](NC(=O)CNC(=O)Cc1cccc(NC(=O)c2cc(NC(=O)c3cccc(NC(=O)Nc4cccc(C(=O)Nc5cc(C(=O)Nc6cccc(CC(=O)NCC(=O)N[C@@H](CC(C)C)B(O)O)c6)n(C)c5)c4)c3)cn2C)c1)B(O)O", "IC50": "1 to 20 µM"}
